# credit: patent US9156853B2

- assayed_target: AKT3 (Homo sapiens, UniProt Q9Y243)
- Construct: purchased SignalChem
- Sequence (Q9Y243 whole entry): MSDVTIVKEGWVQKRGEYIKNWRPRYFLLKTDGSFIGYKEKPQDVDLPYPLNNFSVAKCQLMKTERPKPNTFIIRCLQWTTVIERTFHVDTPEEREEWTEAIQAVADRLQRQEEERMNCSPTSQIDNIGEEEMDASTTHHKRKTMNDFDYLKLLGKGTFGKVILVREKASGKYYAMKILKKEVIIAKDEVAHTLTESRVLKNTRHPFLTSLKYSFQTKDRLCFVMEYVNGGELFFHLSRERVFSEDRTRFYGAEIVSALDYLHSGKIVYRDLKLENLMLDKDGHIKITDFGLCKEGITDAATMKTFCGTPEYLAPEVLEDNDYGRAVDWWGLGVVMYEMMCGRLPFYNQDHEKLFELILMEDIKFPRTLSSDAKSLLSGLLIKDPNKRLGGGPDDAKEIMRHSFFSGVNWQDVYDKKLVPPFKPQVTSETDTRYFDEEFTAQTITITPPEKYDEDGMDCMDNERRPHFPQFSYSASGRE
- experiment_notes: AKT Kinase Assay (IMAP fluorescent polarisation), AKT3 isoform
- Format: biochemical
- conditions_used: compared with the non-hydroxylated Compound A, F or L
assay_endpoint: potency against AKT3 compared with the comparator compound

{"columns": ["smi", "endpoint_result"],
 "data": [
  ["Cn1c(-c2ccc([C@]3(N)C[C@](C)(O)C3)cc2)c(-c2ccccc2)c2c(=O)n(CC(F)(F)F)cnc21", "improved potency"],
  ["N[C@]1(c2ccc(-c3oc4ncn(CC(F)(F)F)c(=O)c4c3-c3ccccc3)cc2)C[C@H](O)C1", "improved potency"],
  ["C[C@]1(O)C[C@@](N)(c2ccc(-c3sc4ncn(CC(F)(F)F)c(=O)c4c3-c3ccccc3)cc2)C1", "improved potency"]
]}
